# System: DLD1
# measurement protocol: TCF/Wnt firefly luciferase reporter signal relative to plate median (fraction of plate median); higher = higher Wnt reporter signal
# condition: 10 µM; treatment time 24 h; reporter: 7TFP
Classification field: enter t for TCF/Wnt firefly luciferase reporter signal values not below 1, f for values below it.

Examples with answers:
# compound, classification
data = [
    ("C=CC(=O)Nc1cc2c(Nc3ccc(F)c(Cl)c3)ncnc2cc1OCCCN1CCOCC1 [CI-1033 (Canertinib)]", "f"),
    ("CCc1cccc(CC)c1NC(=O)N1Cc2[nH]nc(NC(=O)c3ccc(N4CCN(C)CC4)cc3)c2C1", "t"),
]

Note: attention shifts to another entry.
Q: # bool: TCF/Wnt firefly luciferase reporter signal of CS(=O)(=O)CCNCc1ccc(-c2ccc3ncnc(Nc4ccc(OCc5cccc(F)c5)c(Cl)c4)c3c2)o1 [Lapatinib Ditosylate (Tykerb)] >= 1
Ans: t

---

# Tested on: DLD1
# measurement protocol: TCF/Wnt firefly luciferase reporter signal relative to plate median (fraction of plate median); higher = higher Wnt reporter signal
# condition: 10 µM; treatment time 24 h; reporter: TCF4/Wnt
measured parameter: TCF/Wnt firefly luciferase reporter signal
One number for each entry.

Go through the list and state TCF/Wnt firefly luciferase reporter signal for each entry.
1. C=CC(=O)Nc1cc2c(Nc3ccc(F)c(Cl)c3)ncnc2cc1OCCCN1CCOCC1
2. CC(C)(C)c1cc(NC(=O)Nc2ccc(-c3cn4c(n3)sc3cc(OCCN5CCOCC5)ccc34)cc2)no1
3. COc1cc(Nc2ncc(F)c(Nc3ccc4c(n3)N(COP(=O)(O)O)C(=O)C(C)(C)O4)n2)cc(OC)c1OC
4. Cc1cc2c(F)c(Oc3ncnn4cc(OC[C@@H](C)O)c(C)c34)ccc2[nH]1
5. C=CC(=O)Nc1cccc(Oc2nc(Nc3ccc(N4CCN(C)CC4)cc3OC)ncc2Cl)c1

Ans:
1: 0.601; 2: 1.04; 3: 0.831; 4: 1.05; 5: 1.05

// batch mode: one TCF/Wnt firefly luciferase reporter signal value per listed entry
1. CCc1cc(Nc2nccc(-c3c(-c4ccc(OC)c(C(=O)Nc5c(F)cccc5F)c4)nc4ccccn34)n2)c(OC)cc1N1CCC(N2CCN(S(C)(=O)=O)CC2)CC1
2. CCCS(=O)(=O)Nc1ccc(F)c(C(=O)c2c[nH]c3ncc(-c4ccc(Cl)cc4)cc23)c1F
3. COc1cc(Nc2ncc(F)c(Nc3ccc4c(n3)NC(=O)C(C)(C)O4)n2)cc(OC)c1OC
4. Cc1cc2c(F)c(Oc3ncnn4cc(OC[C@@H](C)OC(=O)[C@H](C)N)c(C)c34)ccc2[nH]1

Ans:
0.977
0.939
0.941
1.14

Could I get TCF/Wnt firefly luciferase reporter signal for every one of these entries?
1. CCn1c(-c2nonc2N)nc2c(C#CC(C)(C)O)ncc(OC[C@H]3CCCNC3)c21
2. O=C(NCc1ccccc1)c1csc(Nc2ccncn2)n1
3. O=C1NC(=O)C(=Cc2ccc(-c3ccc(F)cc3)o2)S1 (stereo in doubt)

Ans:
[1.22, 0.78, 1.55]

Items follow; give TCF/Wnt firefly luciferase reporter signal for each.
1. CCC[C@H](NC(=O)/C(C#N)=C/c1cccc(Br)n1)c1ccccc1
2. COc1cc(N2CCC(N3CCN(C)CC3)CC2)ccc1Nc1ncc(Cl)c(Nc2ccccc2S(=O)(=O)C(C)C)n1
3. CNC(=O)c1ccc(-c2cnc3ncc(Cc4ccc5ncccc5c4)n3n2)cc1F
4. CC(=O)Nc1cccc(-n2c(=O)n(C3CC3)c(=O)c3c(Nc4ccc(I)cc4F)n(C)c(=O)c(C)c32)c1
5. COc1cc2c(Nc3ccc(NC(=O)c4ccccc4)cc3)ncnc2cc1OCCCN1CCOCC1

Ans:
1. 0.0661
2. 1.14
3. 1.14
4. 1.39
5. 1.19

---

# System: DLD1
# measurement protocol: TCF/Wnt firefly luciferase reporter signal relative to plate median (fraction of plate median); higher = higher Wnt reporter signal
# condition: 5 µM; treatment time 24 h; reporter: 7TFP
We use 1 as the dividing line for TCF/Wnt firefly luciferase reporter signal: on or above the line is Condition met, below is Condition not met.

# compound structure string, classification
data = [
    ("CC[C@H](C)[C@@H]1NC(=O)[C@H](C)NC1=O", "Condition met"),
    ("CC(=O)OCC1=C(C(=O)O)N2C(=O)[C@@H](NC(=O)Cc3cccs3)[C@H]2SC1", "Condition not met"),
    ("CC(C)(Oc1ccc(CCNC(=O)c2ccc(Cl)cc2)cc1)C(=O)O", "Condition not met"),
]

Q: Answer whether TCF/Wnt firefly luciferase reporter signal of "N/C(=N\C(=O)c1nc(Cl)c(N)nc1N)NCc1ccccc1" is greater than or equal to 1.
Ans: Condition met

Q: Please indicate if the recorded TCF/Wnt firefly luciferase reporter signal for "COc1cc(O)c2c(c1)C(=O)c1cc(C)cc(O)c1C2=O" meets or exceeds 1.
Ans: Condition not met

Q: Is it the case that "CCOC(=O)[C@H](CCc1ccccc1)N[C@@H](C)C(=O)N1Cc2ccccc2C[C@H]1C(=O)O" has TCF/Wnt firefly luciferase reporter signal reaching or exceeding 1?
Ans: Condition not met

Q: Hi team, for "CN(C)[C@@H]1C(O)=C(C(N)=O)C(=O)[C@@]2(O)C(O)=C3C(=O)c4c(O)cccc4[C@@](C)(O)[C@H]3C[C@@H]12" , is the recorded TCF/Wnt firefly luciferase reporter signal at or above 1?
Ans: Condition not met

Q: Determine whether this compound has TCF/Wnt firefly luciferase reporter signal no lower than 1: "N[C@@H](Cc1cc(I)c(Oc2cc(I)c(O)c(I)c2)c(I)c1)C(=O)O"
Ans: Condition met

---

# System: DLD1
# measurement protocol: TCF/Wnt firefly luciferase reporter signal relative to plate median (fraction of plate median); higher = higher Wnt reporter signal
# condition: 5 µM; treatment time 24 h; reporter: 7TFP
Classification field: enter criterion met for TCF/Wnt firefly luciferase reporter signal values not below 0.9, criterion not met for values below it.

Example entries and their recorded answers appear below.
# compound, classification
rows = [
    ("CC[C@H]1OC(=O)C[C@@H](O)[C@H](C)[C@@H](O[C@@H]2O[C@H](C)[C@@H](O[C@H]3C[C@@](C)(O)[C@@H](O)[C@H](C)O3)[C@H](N(C)C)[C@H]2O)[C@@H](CC=O)C[C@@H](C)C(=O)/C=C/C(C)=C/[C@@H]1CO[C@@H]1O[C@H](C)[C@@H](O)[C@@H](OC)[C@H]1OC", "criterion met"),
    ("CC(C)=CCc1c(O)cc2occ(-c3ccc4c(c3)OCO4)c(=O)c2c1O", "criterion met"),
    ("COc1c(CC(=O)c2cc3c(cc2O)OC(C)(C)C(O)C3)ccc2c1C=CC(C)(C)O2 (centres undefined)", "criterion met"),
    ("O=C(CCCCCCCCCCCCC1CCCC1)Nc1ccc(S(=O)(=O)c2ccc(NC(=O)CCCCCCCCCCCCC3CCCC3)cc2)cc1", "criterion met"),
    ("CC(CN(C)C)CN1c2ccccc2CCc2ccccc21 (centres undefined)", "criterion met"),
    ("NC(CO)C(=O)NNCc1ccc(O)c(O)c1O (centres undefined)", "criterion met"),
    ("COC1=C[C@@H](C)[C@@H]2C[C@H]3OC(=O)C[C@H]4C(C)=C(OC)C(=O)[C@H]([C@@]2(C)C1=O)[C@@]34C", "criterion met"),
    ("CC12CCCC(O)(C1)C1CC(C)(C)C1CC2 (centres undefined)", "criterion met"),
    ("Nc1ccn([C@@H]2O[C@H](CO)[C@@H](O)[C@H]2O)c(=O)n1", "criterion met"),
    ("O=C(/C=C/c1ccc(O)c(O)c1)O[C@H](Cc1ccc(O)c(O)c1)C(=O)O", "criterion not met"),
]

Q: Answer whether TCF/Wnt firefly luciferase reporter signal of Cc1cccc(C)c1NC(=O)C1CCCCN1C (centres undefined) is greater than or equal to 0.9.
Ans: criterion met

Q: Please indicate if the recorded TCF/Wnt firefly luciferase reporter signal for "CC(=O)N[C@@H](CC(C)C)C(=O)O" meets or exceeds 0.9.
Ans: criterion met

Q: Hi, just wondering whether "CC(=O)c1cc2c(cc1O)OC(C)(C)C=C2" shows TCF/Wnt firefly luciferase reporter signal of 0.9 or higher.
Ans: criterion met

Q: Could you verify whether the entry "O=C(O)c1c[nH]c2ccccc12" shows TCF/Wnt firefly luciferase reporter signal of no less than 0.9?
Ans: criterion not met

Q: Hello, I need to know if "CCOc1ccc2nc(S(N)(=O)=O)sc2c1" has measured TCF/Wnt firefly luciferase reporter signal not below 0.9. Thanks!
Ans: criterion not met

Q: Determine whether measured TCF/Wnt firefly luciferase reporter signal meets or exceeds 0.9 for "CO[C@H]1C=C[C@@]23c4cc5c(cc4CN(C[C@@H]2O)[C@H]3C1)OCO5"
Ans: criterion not met

Q: Could you please find out whether COC(=O)C[C@H]1C(C)(C)C2(O)OC34CC2C(=O)[C@]1(C)C3CC[C@]1(C)C4=CC(=O)O[C@H]1c1ccoc1 (stereo partly drawn) [8beta-HYDROXYCARAPIN, 3,8-HEMIACETAL] has TCF/Wnt firefly luciferase reporter signal that meets 0.9 or exceeds it?
Ans: criterion not met
